We begin with a simple list: items and their reported viability at 10 µM.
system: SW-620; assay: Cytotoxicity against human SW-620 cells assessed as cell viability at 10 uM incubated for 48 hrs by sulforhodamine B assay relative to control; type: functional; settings: read-out: Activity
Write the value in % as a bare number.

Previously resolved entries follow.
{"COMPOUND": "O=S(=O)(NCCCNc1nccc(-c2c(-c3cccc(F)c3)nc3sccn23)n1)c1ccc(Br)cc1", "QUANTITY NAME": "viability at 10 µM", "NUMBER": 77.6}
{"COMPOUND": "O=C(NCCNc1nccc(-c2c(-c3cccc(F)c3)nc3sccn23)n1)c1ccccc1", "QUANTITY NAME": "viability at 10 µM", "NUMBER": 52.3}
{"COMPOUND": "O=S(=O)(NCCNc1nccc(-c2c(-c3cccc(F)c3)nc3sccn23)n1)c1cccc2ccccc12", "QUANTITY NAME": "viability at 10 µM", "NUMBER": 115}
{"COMPOUND": "O=C(NCCNc1nccc(-c2c(-c3cccc(F)c3)nc3sccn23)n1)c1ccc(C(F)(F)F)cc1", "QUANTITY NAME": "viability at 10 µM", "NUMBER": 79}
{"COMPOUND": "O=C(NCCCNc1nccc(-c2c(-c3cccc(F)c3)nc3sccn23)n1)C1CCCCC1", "QUANTITY NAME": "viability at 10 µM", "NUMBER": 82.1}
{"COMPOUND": "O=S(=O)(NCCCNc1nccc(-c2c(-c3cccc(F)c3)nc3sccn23)n1)c1cccc(F)c1", "QUANTITY NAME": "viability at 10 µM", "NUMBER": 76.7}
{"COMPOUND": "O=S(=O)(NCCNc1nccc(-c2c(-c3cccc(F)c3)nc3sccn23)n1)c1cccc(F)c1", "QUANTITY NAME": "viability at 10 µM", "NUMBER": 75.8}
{"COMPOUND": "O=S(=O)(NCCCNc1nccc(-c2c(-c3cccc(F)c3)nc3sccn23)n1)c1ccc(O)cc1", "QUANTITY NAME": "viability at 10 µM", "NUMBER": 82.7}

The observed viability at 10 µM for O=C(NCCNc1nccc(-c2c(-c3cccc(F)c3)nc3sccn23)n1)c1ccc(Cl)cc1 when tested with SW-620 stands at 65.2

Measured on SW-620, O=S(=O)(NCCNc1nccc(-c2c(-c3cccc(F)c3)nc3sccn23)n1)c1ccc(C(F)(F)F)cc1 has a documented viability at 10 µM of 110

For the molecule O=S(=O)(NCCNc1nccc(-c2c(-c3cccc(F)c3)nc3sccn23)n1)c1ccc(F)cc1 , the measured viability at 10 µM on SW-620 was 63

Given the molecule O=S(=O)(NCCCNc1nccc(-c2c(-c3cccc(F)c3)nc3sccn23)n1)c1ccccc1 and test system SW-620, the measured viability at 10 µM is 91.3

For the molecule O=S(=O)(NCCCNc1nccc(-c2c(-c3cccc(F)c3)nc3sccn23)n1)c1ccc(F)cc1 , the measured viability at 10 µM on SW-620 was 106

---

tested on: SR; experiment: Cytotoxicity against human SR cells assessed as cell viability at 10 uM incubated for 48 hrs by sulforhodamine B assay relative to control; format: functional; details: read-out: Activity
Some compounds, each annotated with its measured viability at 10 µM.
Please respond with the number in % and leave the unit unwritten.

Solved entries (count: 5):
{"COMPOUND": "O=S(=O)(NCCCNc1nccc(-c2c(-c3cccc(F)c3)nc3sccn23)n1)c1ccc(Br)cc1", "UNIT TEXT": "%", "viability at 10 µM": 78.1}
{"COMPOUND": "O=C(NCCNc1nccc(-c2c(-c3cccc(F)c3)nc3sccn23)n1)c1ccc(C(F)(F)F)cc1", "UNIT TEXT": "%", "viability at 10 µM": 68.9}
{"COMPOUND": "O=S(=O)(NCCCNc1nccc(-c2c(-c3cccc(F)c3)nc3sccn23)n1)c1ccccc1", "UNIT TEXT": "%", "viability at 10 µM": 82.2}
{"COMPOUND": "O=C(NCCCNc1nccc(-c2c(-c3cccc(F)c3)nc3sccn23)n1)c1ccc(C(F)(F)F)cc1", "UNIT TEXT": "%", "viability at 10 µM": 86.8}
{"COMPOUND": "O=S(=O)(NCCCNc1nccc(-c2c(-c3cccc(F)c3)nc3sccn23)n1)c1ccc(O)cc1", "UNIT TEXT": "%", "viability at 10 µM": 52.6}

# ---- query compound ----
Recorded result, O=S(=O)(NCCCNc1nccc(-c2c(-c3cccc(F)c3)nc3sccn23)n1)c1cccc2ccccc12 , viability at 10 µM: 62

---

Recorded pIC50 values for a group of compounds are listed next.
molecular target: Serine/threonine-protein kinase B-raf (Homo sapiens, UniProt P15056, V600E); experiment: Inhibition of human BRAF V600E mutant using MEK1 as substrate by […] assay
Sequence (P15056 2-766 V600E limits assumed): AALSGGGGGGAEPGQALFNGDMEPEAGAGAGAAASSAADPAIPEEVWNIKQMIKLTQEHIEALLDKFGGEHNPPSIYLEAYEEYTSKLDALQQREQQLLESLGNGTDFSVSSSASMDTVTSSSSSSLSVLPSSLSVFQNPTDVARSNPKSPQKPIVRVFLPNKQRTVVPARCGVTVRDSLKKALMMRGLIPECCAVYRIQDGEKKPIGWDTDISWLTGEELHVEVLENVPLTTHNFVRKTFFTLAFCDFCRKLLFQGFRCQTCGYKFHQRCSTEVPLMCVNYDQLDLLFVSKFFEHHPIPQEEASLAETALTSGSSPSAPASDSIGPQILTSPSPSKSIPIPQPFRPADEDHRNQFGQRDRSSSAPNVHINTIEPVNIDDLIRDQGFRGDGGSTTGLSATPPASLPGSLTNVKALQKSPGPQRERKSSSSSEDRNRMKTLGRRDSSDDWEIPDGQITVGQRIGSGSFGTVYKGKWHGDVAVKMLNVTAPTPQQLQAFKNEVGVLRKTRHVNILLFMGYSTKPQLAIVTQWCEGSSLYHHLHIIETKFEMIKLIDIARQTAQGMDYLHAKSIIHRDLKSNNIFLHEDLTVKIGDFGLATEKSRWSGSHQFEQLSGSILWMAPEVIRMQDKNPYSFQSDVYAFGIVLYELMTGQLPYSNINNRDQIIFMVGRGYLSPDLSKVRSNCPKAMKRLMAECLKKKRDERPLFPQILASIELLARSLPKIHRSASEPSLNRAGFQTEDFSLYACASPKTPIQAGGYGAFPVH
For clarity, pIC50 is expressed as the negative log10 of concentration in mol/L.

Recorded pIC50, per entry:
{"COMPOUND": "O=S(=O)(NCCCNc1nccc(-c2c(-c3cccc(F)c3)nc3sccn23)n1)c1ccc(Br)cc1", "pIC50": 8.03}
{"COMPOUND": "O=S(=O)(NCCCNc1nccc(-c2c(-c3cccc(F)c3)nc3sccn23)n1)c1ccc(Cl)cc1", "pIC50": 7.79}
{"COMPOUND": "O=S(=O)(NCCNc1nccc(-c2c(-c3cccc(F)c3)nc3sccn23)n1)c1ccc(C(F)(F)F)cc1", "pIC50": 7.65}
{"COMPOUND": "Cc1ccc(S(=O)(=O)NCCCNc2nccc(-c3c(-c4cccc(F)c4)nc4sccn34)n2)cc1", "pIC50": 7.05}
{"COMPOUND": "COc1ccc(S(=O)(=O)NCCCNc2nccc(-c3c(-c4cccc(F)c4)nc4sccn34)n2)cc1", "pIC50": 7.60}
{"COMPOUND": "O=C(NCCNc1nccc(-c2c(-c3cccc(F)c3)nc3sccn23)n1)c1c(F)cccc1F", "pIC50": 7.48}
{"COMPOUND": "O=C(NCCNc1nccc(-c2c(-c3cccc(F)c3)nc3sccn23)n1)c1ccc(Cl)cc1", "pIC50": 7.57}
{"COMPOUND": "O=C(NCCNc1nccc(-c2c(-c3cccc(F)c3)nc3sccn23)n1)c1ccccc1", "pIC50": 7.43}

API: the following record is the query input.
For the compound O=S(=O)(NCCCNc1nccc(-c2c(-c3cccc(F)c3)nc3sccn23)n1)c1ccc(C(F)(F)F)cc1 , the measured pIC50 on Serine/threonine-protein kinase B-raf (Homo sapiens, UniProt P15056, V600E) was 7.59

---

test system: RXF 393; test: Cytotoxicity against human RXF 393 cells assessed as cell viability at 10 uM incubated for 48 hrs by sulforhodamine B assay relative to control; type: functional; settings: read-out: Activity
Recorded viability at 10 µM by entry
Respond numerically; units are % and should not be typed.

{"COMPOUND": "Cc1ccc(S(=O)(=O)NCCCNc2nccc(-c3c(-c4cccc(F)c4)nc4sccn34)n2)cc1", "UNIT TEXT": "%", "viability at 10 µM": 80.3}
{"COMPOUND": "O=S(=O)(NCCCNc1nccc(-c2c(-c3cccc(F)c3)nc3sccn23)n1)c1ccccc1", "UNIT TEXT": "%", "viability at 10 µM": 84}
{"COMPOUND": "O=S(=O)(NCCNc1nccc(-c2c(-c3cccc(F)c3)nc3sccn23)n1)c1ccc(C(F)(F)F)cc1", "UNIT TEXT": "%", "viability at 10 µM": 92.1}
{"COMPOUND": "O=S(=O)(NCCNc1nccc(-c2c(-c3cccc(F)c3)nc3sccn23)n1)c1cccc2ccccc12", "UNIT TEXT": "%", "viability at 10 µM": 102}
{"COMPOUND": "O=S(=O)(NCCNc1nccc(-c2c(-c3cccc(F)c3)nc3sccn23)n1)c1ccccc1", "UNIT TEXT": "%", "viability at 10 µM": 64.1}
{"COMPOUND": "O=S(=O)(NCCCNc1nccc(-c2c(-c3cccc(F)c3)nc3sccn23)n1)c1ccc(O)cc1", "UNIT TEXT": "%", "viability at 10 µM": 84}

Looking up O=C(NCCNc1nccc(-c2c(-c3cccc(F)c3)nc3sccn23)n1)c1c(F)cccc1F , I see its viability at 10 µM listed as 57.1

Summary for this compound, O=S(=O)(NCCNc1nccc(-c2c(-c3cccc(F)c3)nc3sccn23)n1)c1ccc(F)cc1 : viability at 10 µM is 68.9

Reported viability at 10 µM ( O=C(NCCNc1nccc(-c2c(-c3cccc(F)c3)nc3sccn23)n1)c1ccccc1 ) = 60.6

---

system: SW-620; experiment: Cytotoxicity against human SW-620 cells assessed as cell viability at 10 uM incubated for 48 hrs by sulforhodamine B assay relative to control; assay type: functional; conditions: read-out: Activity
QUANTITY NAME: viability at 10 µM (%)
Output spec: scalar in %, unitless text.

Sample answers from the record:
{"COMPOUND": "O=S(=O)(NCCCNc1nccc(-c2c(-c3cccc(F)c3)nc3sccn23)n1)c1cccc2ccccc12", "EXPERIMENTAL SYSTEM": "SW-620", "QUANTITY NAME": "viability at 10 µM", "NUMBER": 42.1}
{"COMPOUND": "O=S(=O)(NCCNc1nccc(-c2c(-c3cccc(F)c3)nc3sccn23)n1)c1ccc(Br)cc1", "EXPERIMENTAL SYSTEM": "SW-620", "QUANTITY NAME": "viability at 10 µM", "NUMBER": 54.8}
{"COMPOUND": "O=S(=O)(NCCCNc1nccc(-c2c(-c3cccc(F)c3)nc3sccn23)n1)c1ccc(C(F)(F)F)cc1", "EXPERIMENTAL SYSTEM": "SW-620", "QUANTITY NAME": "viability at 10 µM", "NUMBER": 115}
{"COMPOUND": "O=C(NCCNc1nccc(-c2c(-c3cccc(F)c3)nc3sccn23)n1)C1CCCCC1", "EXPERIMENTAL SYSTEM": "SW-620", "QUANTITY NAME": "viability at 10 µM", "NUMBER": 114}
{"COMPOUND": "O=C(NCCNc1nccc(-c2c(-c3cccc(F)c3)nc3sccn23)n1)c1c(F)cccc1F", "EXPERIMENTAL SYSTEM": "SW-620", "QUANTITY NAME": "viability at 10 µM", "NUMBER": 47.3}

# input for lookup
response.value for O=S(=O)(NCCNc1nccc(-c2c(-c3cccc(F)c3)nc3sccn23)n1)c1ccccc1 (field: viability at 10 µM) = 44.5
